# SYSTEM_UNDER_TEST: PHD2 (EGLN1) (Homo sapiens (Human), UniProt Q9GZT9)
# Sequence (Q9GZT9 whole entry): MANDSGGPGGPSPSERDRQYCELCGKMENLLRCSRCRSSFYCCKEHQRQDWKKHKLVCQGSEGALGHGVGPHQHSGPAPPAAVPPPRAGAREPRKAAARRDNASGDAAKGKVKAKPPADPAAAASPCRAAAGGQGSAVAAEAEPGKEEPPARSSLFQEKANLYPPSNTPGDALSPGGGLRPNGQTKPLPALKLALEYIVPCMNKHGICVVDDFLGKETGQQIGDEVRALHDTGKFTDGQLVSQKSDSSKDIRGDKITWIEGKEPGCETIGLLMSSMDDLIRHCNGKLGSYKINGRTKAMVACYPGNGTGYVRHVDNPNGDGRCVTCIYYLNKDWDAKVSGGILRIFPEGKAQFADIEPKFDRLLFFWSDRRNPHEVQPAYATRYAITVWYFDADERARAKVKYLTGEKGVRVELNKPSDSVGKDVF
# ASSAY_DETAILS: HIF-PH assay (14CO2 capture), PHD2 enzyme inhibition
# Type: biochemical
# SETTINGS: Table 1; individual measurement; read-out: IC50 (μM) PHD2
REPORTED_PROPERTY: IC50 (µM)

• N#Cc1nc(C(=O)NCC2(CC(=O)O)CCCCC2)c(O)c2ccc(Oc3ccccc3)cc12 = 56.6

1 = N#Cc1nc(C(=O)N[C@@H](CC(=O)O)c2cccnc2)c(O)c2ccc(Oc3ccccc3)cc12
2 = N#Cc1nc(C(=O)NC2(CC(=O)O)CCC2)c(O)c2ccc(Oc3ccccc3)cc12
3 = N#Cc1nc(C(=O)NCC[C@H](N)C(=O)O)c(O)c2ccc(Oc3ccccc3)cc12
4 = N#Cc1nc(C(=O)NCC2(C(=O)O)CCC2)c(O)c2ccc(Oc3ccccc3)cc12
In: Output the entries ranked by IC50 from maximum down to minimum. Return value: ordered labels per request.
Out: 2, 3, 1, 4

Source: patent US9409892B2
